FYI, the data here is from patent US12258328B2.

I'd be grateful if you could share measured pIC50 for these entries.
target: EGFR wildtype (Homo sapiens, UniProt P00533); test: Biochemical EGFR kinase assay (Lance Ultra TR-FRET), wildtype; settings: ATP at Km; read-out: IC50 WT, Km ATP
Sequence (P00533 25-1210): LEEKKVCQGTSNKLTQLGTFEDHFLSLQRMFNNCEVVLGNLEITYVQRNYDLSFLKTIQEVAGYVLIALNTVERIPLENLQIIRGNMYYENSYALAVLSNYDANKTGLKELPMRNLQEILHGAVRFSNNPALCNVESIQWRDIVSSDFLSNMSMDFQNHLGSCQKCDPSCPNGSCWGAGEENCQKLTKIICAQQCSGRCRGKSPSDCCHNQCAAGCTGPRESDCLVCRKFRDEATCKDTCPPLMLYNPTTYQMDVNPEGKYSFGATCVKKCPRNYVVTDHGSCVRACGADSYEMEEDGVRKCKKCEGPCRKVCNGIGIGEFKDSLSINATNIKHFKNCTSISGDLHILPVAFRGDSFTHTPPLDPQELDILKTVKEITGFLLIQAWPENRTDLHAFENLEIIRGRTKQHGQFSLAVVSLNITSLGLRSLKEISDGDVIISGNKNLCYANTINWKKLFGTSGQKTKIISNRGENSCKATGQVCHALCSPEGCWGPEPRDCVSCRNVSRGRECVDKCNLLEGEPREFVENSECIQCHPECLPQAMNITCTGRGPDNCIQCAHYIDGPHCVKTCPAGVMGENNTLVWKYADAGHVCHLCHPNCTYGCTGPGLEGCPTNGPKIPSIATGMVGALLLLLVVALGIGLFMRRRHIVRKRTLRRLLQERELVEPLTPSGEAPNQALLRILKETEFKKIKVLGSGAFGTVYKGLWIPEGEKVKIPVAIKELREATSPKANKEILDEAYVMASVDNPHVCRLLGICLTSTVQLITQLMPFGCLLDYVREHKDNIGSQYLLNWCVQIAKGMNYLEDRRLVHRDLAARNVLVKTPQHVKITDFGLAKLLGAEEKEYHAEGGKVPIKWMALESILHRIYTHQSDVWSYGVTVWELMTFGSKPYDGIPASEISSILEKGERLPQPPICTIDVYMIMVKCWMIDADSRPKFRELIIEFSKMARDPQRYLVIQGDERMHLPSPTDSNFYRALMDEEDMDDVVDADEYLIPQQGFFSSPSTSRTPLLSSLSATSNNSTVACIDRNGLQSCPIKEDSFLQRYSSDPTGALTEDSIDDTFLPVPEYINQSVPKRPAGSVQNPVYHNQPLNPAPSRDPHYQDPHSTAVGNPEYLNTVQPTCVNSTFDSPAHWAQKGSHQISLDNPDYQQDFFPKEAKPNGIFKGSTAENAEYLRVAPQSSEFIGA
// field semantics: pIC50 = negative decimal log of concentration (mol/L)

Consider the molecule shown here: O=S(=O)(C1CC1)n1cc(-c2nccc(Nc3cc(NC4CCC(F)CC4)c(-c4ccc(N5CCC(F)(F)CC5)nn4)cn3)n2)cn1 (centres unmarked) [Example 267] What is its recorded pIC50?
5.54

Consider the molecule shown here: C[C@]1(O)CC[C@@H](Nc2cc(Nc3ccnc(-c4cnn(S(=O)(=O)C5CC5)c4)n3)ncc2-c2cc(NCCC(F)(F)F)ccn2)CC1 [Example 277] What is its recorded pIC50?
8.01

Consider the molecule shown here: Cc1ccc(-c2cnc(Nc3ccnc(-c4cnn(S(=O)(=O)C5CC5)c4)n3)cc2N[C@H]2CC[C@@H](C(C)(C)O)CC2)nc1F [Example 180] What is its recorded pIC50?
7.32

Consider the molecule shown here: CC(C)(O)[C@H]1CC[C@@H](Nc2cc(Nc3ccnc(-c4cnn(S(=O)(=O)C5CC5)c4)n3)ncc2-c2cc(NC3CC(F)(F)C3)ccn2)CC1 [Example 215] What is its recorded pIC50?
7.67

Consider the molecule shown here: C[C@]1(O)CC[C@@H](Nc2cc(Nc3ccnc(-c4cnn(S(=O)(=O)C5CC5)c4)n3)ncc2-c2ccc(C(F)(F)F)c(F)n2)CC1 [Example 181] What is its recorded pIC50?
6.89

Consider the molecule shown here: CN1CCC(Oc2ccc(-c3cnc(Nc4ccnc(-c5cnn(S(=O)(=O)C6CC6)c5)n4)cc3NC3CCC(F)CC3)nc2)CC1 (centres unmarked) [Example 254] What is its recorded pIC50?
9.15

Consider the molecule shown here: CC(O)(c1ccc(-c2cnc(Nc3ccnc(-c4cnn(S(=O)(=O)C5CC5)c4)n3)cc2N[C@H]2CCC[C@H](CO)C2)nc1)C(F)(F)F (some centres unmarked) [Example 232] What is its recorded pIC50?
7.72

Consider the molecule shown here: O=S(=O)(C1CC1)n1cc(-c2nccc(Nc3cc(NC4CCC(CO)CC4)c(-c4ccc(C(O)C(F)(F)F)cn4)cn3)n2)cn1 (centres unmarked) [Example 227] What is its recorded pIC50?
8.28

Consider the molecule shown here: CN(C)CCOc1ccc(-c2cnc(Nc3ccnc(-c4cnn(S(=O)(=O)C5CC5)c4)n3)cc2N[C@H]2CC[C@@H](CO)CC2)nc1 [Example 209] What is its recorded pIC50?
9.70

Consider the molecule shown here: O=S(=O)(C1CC1)n1cc(-c2nccc(Nc3cc(N[C@H]4CC[C@@H](CO)CC4)c(-c4ccc(CC(F)(F)F)cn4)cn3)n2)cn1 [Example 219] What is its recorded pIC50?
7.92

Consider the molecule shown here: CS(=O)(=O)c1ccc(-c2cnc(Nc3ccnc(-c4cnn(S(=O)(=O)C5CC5)c4)n3)cc2N[C@H]2CC[C@@H](NCCF)CC2)nc1 [Example 157] What is its recorded pIC50?
8.16

Consider the molecule shown here: CC(F)(F)c1ccc(-c2cnc(Nc3ccnc(-c4cnn(S(=O)(=O)C5CC5)c4)n3)cc2N[C@H]2CC[C@@H](CO)CC2)nc1 [Example 241] What is its recorded pIC50?
7.69

Consider the molecule shown here: C[C@]1(O)CC[C@@H](Nc2cc(Nc3ccnc(-c4cnn(S(=O)(=O)C5CC5)c4)n3)ncc2-c2cc(NCCN3CCOCC3)ccn2)CC1 [Example 279] What is its recorded pIC50?
7.92

Consider the molecule shown here: CN1CCN(S(=O)(=O)c2ccc(-c3cnc(Nc4ccnc(-c5cnn(S(=O)(=O)C6CC6)c5)n4)cc3N[C@H]3CC[C@@H](CO)CC3)nc2)CC1 [Example 189] What is its recorded pIC50?
8.16

Consider the molecule shown here: CC(C)(F)c1ccc(-c2cnc(Nc3ccnc(-c4cnn(S(=O)(=O)C5CC5)c4)n3)cc2N[C@H]2CC[C@@H](F)CC2)nc1 [Example 238] What is its recorded pIC50?
6.50

Consider the molecule shown here: C[C@]1(O)CC[C@@H](Nc2cc(Nc3ccnc(-c4cnn(S(=O)(=O)C5CC5)c4)n3)ncc2-c2cnc(OC3CCN(CCF)CC3)cn2)CC1 [Example 153] What is its recorded pIC50?
8.49

Consider the molecule shown here: CN(C)S(=O)(=O)n1cc(-c2nccc(Nc3cc(NC4CCC(C)(O)CC4)c(-c4ccc(C(O)C(F)(F)F)cn4)cn3)n2)cn1 (centres unmarked) [Example 297] What is its recorded pIC50?
7.40

Consider the molecule shown here: CC(C)(O)[C@H]1CC[C@@H](Nc2cc(Nc3ccnc(-c4cnn(S(=O)(=O)C5CC5)c4)n3)ncc2-c2ccc(N3CC(F)(F)C3)cn2)CC1 [Example 225] What is its recorded pIC50?
7.47

Consider the molecule shown here: C[C@]1(O)CC[C@@H](Nc2cc(Nc3ccnc(-c4cnn(S(=O)(=O)C5CC5)c4)n3)ncc2-c2ccc(OCCN3CCC3)cn2)CC1 [Example 290] What is its recorded pIC50?
9.30

Consider the molecule shown here: CN(C)S(=O)(=O)n1cc(-c2nccc(Nc3cc(N[C@H]4CC[C@@](C)(O)CC4)c(-c4ccc(CC(F)(F)F)cn4)cn3)n2)cn1 [Example 296] What is its recorded pIC50?
7.05

Consider the molecule shown here: COC(c1ccc(-c2cnc(Nc3ccnc(-c4cnn(S(=O)(=O)C5CC5)c4)n3)cc2NC2CCC(C)(O)CC2)nc1)C(F)(F)F (centres unmarked) [Example 260] What is its recorded pIC50?
8.11

Consider the molecule shown here: CC(C)Nc1cc(Nc2ccnc(-c3cnn(S(=O)(=O)C4CC4)c3)n2)ncc1-c1ccc(C(O)C(F)(F)F)cn1 (centres unmarked) [Example 294] What is its recorded pIC50?
7.55

Consider the molecule shown here: O=S(=O)(C1CC1)n1cc(-c2nccc(Nc3cc(N[C@H]4CC[C@@H](CO)CC4)c(-c4cc(NC5CC(F)(F)C5)ccn4)cn3)n2)cn1 [Example 214] What is its recorded pIC50?
8.35
